Numbers sourced from paper PMC10648852.

Tested on: A. baumannii clinical isolates
Assay Info: microbe, parasite or virus in culture
Format: cell-based
Settings: Acinetobacter baumannii, isolate ARC7011 (IHMA 2104553), Germany, RTI, 2019, read-out: MIC
Below is a list of entries, each paired with its recorded MIC value.

Structure Smiles: CC1(C)[C@H](C(=O)O)N2C(=O)C[C@H]2S1(=O)=O
MIC: > 64 µg/mL
--
Structure Smiles: C[C@@H](O)[C@H]1C(=O)N2C(C(=O)O)=C(SCCN=CN)C[C@H]12
MIC: > 64 µg/mL
--
Structure Smiles: CN(C)c1cc(NC(=O)CNC(C)(C)C)c(O)c2c1C[C@H]1C[C@H]3[C@H](N(C)C)C(O)=C(C(N)=O)C(=O)[C@@]3(O)C(O)=C1C2=O
MIC: 2 µg/mL
--
Structure Smiles: C[C@@H](O)[C@H]1C(=O)N2C(C(=O)O)=C(S[C@@H]3CN[C@H](C(=O)N(C)C)C3)[C@H](C)[C@H]12
MIC: > 64 µg/mL
